Assay: microtubule stabilizers in HeLa cells, primary screen, imaging, high-content imaging (AID 2205);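 for toxicity: 0% = mean cell density of plate MIN control wells and 100% = no cells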
Conditions: HeLa tubulin immunostaining HCS, 24 h, at 10 µM; measured here: cytotoxicity by cell density
About 1,600 (0.8%) of roughly 200,000 compounds were called active. This excerpt belongs to a sample that is enriched for actives.
Catalogue of toxicity values

- molecule: "CN1CCN(C(=O)COc2ccc(C(C)(C)C)cc2Br)CC1"
  toxicity, %: 9.25
- molecule: "Cc1cccc2c(CCN)c[nH]c12"
  toxicity, %: 4.06
- molecule: "O=C(O)CCn1cc(C=C2C(=O)NC(=S)NC2=O)c(-c2cccc(Br)c2)n1"
  toxicity, %: 3.44
- molecule: "C[N+]12CN3CN(CN(C3)C1)C2"
  toxicity, %: 4.73
- molecule: "Cc1cc(C)cc(NC(=S)NC2CC3CCCC(C2)N3Cc2cccs2)c1 (configuration not stated)"
  toxicity, %: 8.8
- molecule: "CC(Cc1cccs1)NCc1ccc(Cl)cc1 (configuration not stated)"
  toxicity, %: 0.83
- molecule: "O=C(c1cc(-c2ccncc2)nc2ccccc12)N1CCC2(CC1)OCCO2"
  toxicity, %: 6.16

* * *

Assay: microtubule stabilizers in HeLa cells, primary screen, imaging, high-content imaging (AID 2205)
Details: HeLa tubulin immunostaining HCS, 24 h, at 10 µM; measured here: nuclear condensation Hoechst responders, stronger effect = higher value
In all, about 200,000 compounds went through this assay and about 1,600 (0.8%) were called active. What follows is part of a selection rich in actives, with near analogues and random picks from the rest.
reported-property: % Hoechst-high responders (%)

- compound: "O=C(c1cc(-c2ccncc2)nc2ccccc12)N1CCC2(CC1)OCCO2"
  unit-abbreviation: "%"
  assay-result: 1.52
- compound: "O=C(O)CCn1cc(C=C2C(=O)NC(=S)NC2=O)c(-c2cccc(Br)c2)n1"
  unit-abbreviation: "%"
  assay-result: 1.76
- compound: "Cc1cc(C)cc(NC(=S)NC2CC3CCCC(C2)N3Cc2cccs2)c1 (stereo unspecified)"
  unit-abbreviation: "%"
  assay-result: 1.98
- compound: "C[N+]12CN3CN(CN(C3)C1)C2"
  unit-abbreviation: "%"
  assay-result: 0.953
- compound: "CN1CCN(C(=O)COc2ccc(C(C)(C)C)cc2Br)CC1"
  unit-abbreviation: "%"
  assay-result: 1.35
- compound: "Cc1cccc2c(CCN)c[nH]c12"
  unit-abbreviation: "%"
  assay-result: 2.2
